B1: Poly(rC)-binding protein 1, residues 278 to 350; numbered along this chain, Q15365 (parent)
chain: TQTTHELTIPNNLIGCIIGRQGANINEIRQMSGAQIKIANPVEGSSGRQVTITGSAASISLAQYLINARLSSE

variants of: B1; assay: abundance fitness (aPCA) (normalised: wild type 0, dead -1); higher = more abundant; growth selection in yeast, the domain comes from the species named; details: Homo sapiens
Output label 1 for abundance fitness not less than -0.4; output label 0 otherwise.

>>> print(df.to_string())
   mutations  qualitative_label
0       A62T            label 0
1       I14G            label 0
2       N12D            label 1
3       L61P            label 0
4       N12S            label 1
5       A23R            label 1
6       I59Q            label 0
7       A23M            label 1

Exercise: Can T4Y be said to have abundance fitness at or above -0.4?
Solution: label 1

Exercise: Given the entry A34C , answer whether its abundance fitness meets or surpasses -0.4.
Solution: label 0

Exercise: Decide: abundance fitness of A34T >= -0.4?
Solution: label 1

Exercise: Check the entry Q63G : does abundance fitness equal or exceed -0.4?
Solution: label 1

Exercise: Given P10M , state whether its abundance fitness is at least -0.4.
Solution: label 0

Exercise: Does the reported abundance fitness for A62P fall at or above the -0.4 mark?
Solution: label 0

Exercise: Decide: abundance fitness of G15S >= -0.4?
Solution: label 1

Exercise: Has I14A a recorded abundance fitness greater than or equal to -0.4?
Solution: label 1

Provenance of the data: the Human Domainome abundance scans (Beltran et al. 2025)
